Biological target: ER in rat uterine cytosol (ERα) (Rattus norvegicus)
Construct: The uterus was removed and homogenized in ice-cold TEGDMo buffer; from tissue; host or cells: uterine cytosol of castrated female Sprague Dawley rats
Sequence (P06211 whole entry): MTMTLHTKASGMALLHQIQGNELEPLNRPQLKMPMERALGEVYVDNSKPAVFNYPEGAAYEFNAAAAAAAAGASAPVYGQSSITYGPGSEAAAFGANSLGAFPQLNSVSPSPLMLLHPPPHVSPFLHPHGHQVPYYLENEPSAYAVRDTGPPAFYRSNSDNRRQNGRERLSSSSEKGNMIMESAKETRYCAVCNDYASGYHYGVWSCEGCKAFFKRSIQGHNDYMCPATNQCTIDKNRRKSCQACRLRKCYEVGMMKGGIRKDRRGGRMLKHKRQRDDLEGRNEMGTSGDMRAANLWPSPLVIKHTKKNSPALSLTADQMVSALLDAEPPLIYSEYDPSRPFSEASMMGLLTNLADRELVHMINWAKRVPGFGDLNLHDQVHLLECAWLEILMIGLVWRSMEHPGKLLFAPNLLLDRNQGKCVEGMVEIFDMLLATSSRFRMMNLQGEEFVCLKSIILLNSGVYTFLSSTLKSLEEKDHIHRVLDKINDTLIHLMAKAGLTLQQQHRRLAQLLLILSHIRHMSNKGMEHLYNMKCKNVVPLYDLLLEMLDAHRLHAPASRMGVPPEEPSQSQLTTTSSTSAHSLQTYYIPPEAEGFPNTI
Test: Competitive binding to the ER in rat uterine cytosol (RBA vs [3H]E2)
Conditions: rat uterine estrogen receptor assay, E2 = 100; ± S.D.
experimentalEndpoint: ER RBA (relative binding affinity)

1) COC(=O)[C@@H]1C[C@H]2[C@@H]3CCc4cc(O)ccc4[C@H]3CC[C@]2(C)[C@H]1O [E16-1,1] ... 35
2) CC(C)OC(=O)[C@@H]1C[C@H]2[C@@H]3CCc4cc(O)ccc4[C@H]3CC[C@]2(C)[C@H]1O [E16-1,3i] ... 7
3) COC(=O)CC[C@@H]1C[C@H]2[C@@H]3CCc4cc(O)ccc4[C@H]3CC[C@]2(C)[C@H]1O [E16-3,1] ... 1
4) C[C@]12CC[C@@H]3c4ccc(O)cc4CC[C@H]3[C@@H]1C[C@@H](C(=O)O)[C@@H]2O [E16-1,0] ... 0
5) CCCOC(=O)[C@@H]1C[C@H]2[C@@H]3CCc4cc(O)ccc4[C@H]3CC[C@]2(C)[C@H]1O [E16-1,3] ... 34

I = C=COC(=O)[C@@H]1C[C@H]2[C@@H]3CCc4cc(O)ccc4[C@H]3CC[C@]2(C)[C@H]1O [E16-1,2vin]
II = CCCCOC(=O)[C@@H]1C[C@H]2[C@@H]3CCc4cc(O)ccc4[C@H]3CC[C@]2(C)[C@H]1O [E16-1,4]
**Q:** Which numeric ER RBA (relative binding affinity) is bigger, that of I or that of II ? Answer = label.
**A:** II
(II: 28, I: 6)

The measured values listed here are drawn from patent US6476012B2.
